Ref: ChEMBL document CHEMBL1821633

# maps each entry to its GI50
tested on: A2780; assay: Antiproliferative activity against human A2780 cells after 72 hrs by MTT assay; type: functional; conditions: A2780, 72 h
Value type: GI50 (µM)

{"columns": ["Compound", "Subject of test", "Reported relation", "Observed"],
 "data": [
  ["O=C1[C@@H]2[C@H](C(=O)N1[C@H]1CCCC[C@@H]1OP(=O)(OCC(Cl)(Cl)Cl)OCC(Cl)(Cl)Cl)[C@H]1CC[C@@H]2O1", "A2780", "=", 39],
  ["O=C1[C@@H]2[C@H](C(=O)N1CCO)[C@H]1CC[C@@H]2O1", "A2780", ">", 100],
  ["O=C1OC(=O)C2C3CCC(O3)C12 (stereo not drawn)", "A2780", "=", 38]
]}

====

system: A2780; test: Antiproliferative activity against human A2780 cells after 72 hrs by MTT assay; type: functional; details: A2780, 72 h
Sorting guide: entries reporting GI50 beneath 20 µM go in the true pile, the rest go in the false pile.

{"columns": ["Smiles str", "Label"],
 "data": [
  ["CCOP(=O)(OCC)OCCCCN1C(=O)[C@@H]2[C@H](C1=O)[C@H]1CC[C@@H]2O1", "false"],
  ["O=C1[C@@H]2[C@H](C(=O)N1CCCCOP(=O)(OCC(Cl)(Cl)Cl)OCC(Cl)(Cl)Cl)[C@H]1CC[C@@H]2O1", "false"],
  ["O=C1[C@@H]2[C@H](C(=O)N1CCOP(=O)(OCC(Cl)(Cl)Cl)OCC(Cl)(Cl)Cl)[C@H]1CC[C@@H]2O1", "false"],
  ["CCOP(=O)(OCC)OCCCCCN1C(=O)[C@@H]2[C@H](C1=O)[C@H]1CC[C@@H]2O1", "false"],
  ["CCOP(=O)(OCC)O[C@H]1CCCC[C@@H]1N1C(=O)[C@@H]2[C@H](C1=O)[C@H]1CC[C@@H]2O1", "false"],
  ["O=C1[C@@H]2[C@H](C(=O)N1CCCCOP(=O)(Oc1ccccc1)Oc1ccccc1)[C@H]1CC[C@@H]2O1", "true"],
  ["O=C1[C@@H]2[C@H](C(=O)N1CCCCCOP(=O)(OCC(Cl)(Cl)Cl)OCC(Cl)(Cl)Cl)[C@H]1CC[C@@H]2O1", "true"],
  ["O=C1c2ccccc2C(=O)N1CCCOP(=O)(Oc1ccccc1)Oc1ccccc1", "false"],
  ["O=C1[C@@H]2[C@H](C(=O)N1CCCCCCOP(=O)(Oc1ccccc1)Oc1ccccc1)[C@H]1CC[C@@H]2O1", "true"],
  ["O=C1[C@@H]2[C@H](C(=O)N1CCCCCOP(=O)(Oc1ccccc1)Oc1ccccc1)[C@H]1CC[C@@H]2O1", "false"]
]}

====

# maps each entry to its GI50
tested on: MCF7; experiment: Antiproliferative activity against human MCF7 cells after 72 hrs by MTT assay; type: functional; settings: MCF7, 72 h
Value type: GI50 (µM)

{"columns": ["Smiles str", "Reported relation", "Observed"],
 "data": [
  ["O=C1[C@@H]2[C@H](C(=O)N1CCOP(=O)(Oc1ccccc1)Oc1ccccc1)[C@H]1CC[C@@H]2O1", ">", 100],
  ["O=C1[C@@H]2[C@H](C(=O)N1CCCCOP(=O)(Oc1ccccc1)Oc1ccccc1)[C@H]1CC[C@@H]2O1", "=", 19],
  ["O=C1[C@@H]2[C@H](C(=O)N1CCCCCCOP(=O)(OCC(Cl)(Cl)Cl)OCC(Cl)(Cl)Cl)[C@H]1CC[C@@H]2O1", "=", 12],
  ["O=C1[C@@H]2[C@H](C(=O)N1CCCCOP(=O)(OCC(Cl)(Cl)Cl)OCC(Cl)(Cl)Cl)[C@H]1CC[C@@H]2O1", "=", 28]
]}

====

test system: MCF7; experiment: Antiproliferative activity against human MCF7 cells after 72 hrs by MTT assay; format: functional; settings: MCF7, 72 h

{"columns": ["Smiles str", "Unit of measurement", "Reported relation", "GI50"],
 "data": [
  ["O=C1[C@@H]2[C@H](C(=O)N1CCOP(=O)(OCC(Cl)(Cl)Cl)OCC(Cl)(Cl)Cl)[C@H]1CC[C@@H]2O1", "µM", ">", 100],
  ["O=C1[C@@H]2[C@H](C(=O)N1CCCCCCOP(=O)(Oc1ccccc1)Oc1ccccc1)[C@H]1CC[C@@H]2O1", "µM", "=", 9.1],
  ["O=C1[C@@H]2[C@H](C(=O)N1[C@H]1CCCC[C@@H]1OP(=O)(Oc1ccccc1)Oc1ccccc1)[C@H]1CC[C@@H]2O1", "µM", "=", 14],
  ["O=C1[C@@H]2[C@H](C(=O)N1[C@H]1CCCC[C@@H]1OP(=O)(OCC(Cl)(Cl)Cl)OCC(Cl)(Cl)Cl)[C@H]1CC[C@@H]2O1", "µM", "=", 54],
  ["O=C1[C@@H]2[C@H](C(=O)N1CCO)[C@H]1CC[C@@H]2O1", "µM", ">", 100],
  ["O=C1[C@@H]2[C@H](C(=O)N1CCCOP(=O)(Oc1ccccc1)Oc1ccccc1)[C@H]1CC[C@@H]2O1", "µM", ">", 100],
  ["O=C1[C@@H]2[C@H](C(=O)N1CCCCCOP(=O)(OCC(Cl)(Cl)Cl)OCC(Cl)(Cl)Cl)[C@H]1CC[C@@H]2O1", "µM", "=", 16]
]}

====

experiment: Antiproliferative activity against human SJ-G2 cells after 72 hrs by MTT assay; type: functional; conditions: SJ-G2, 72 h
# maps each entry to its GI50

{"columns": ["Compound", "GI50"],
 "data": [
  ["O=C1[C@@H]2[C@H](C(=O)N1CCO)[C@H]1CC[C@@H]2O1", "> 100 µM"],
  ["O=C1[C@@H]2[C@H](C(=O)N1CCCCCCOP(=O)(OCC(Cl)(Cl)Cl)OCC(Cl)(Cl)Cl)[C@H]1CC[C@@H]2O1", "14 µM"],
  ["O=C1[C@@H]2[C@H](C(=O)N1CCCCOP(=O)(OCC(Cl)(Cl)Cl)OCC(Cl)(Cl)Cl)[C@H]1CC[C@@H]2O1", "48 µM"],
  ["O=C1[C@@H]2[C@H](C(=O)N1CCCCCCOP(=O)(Oc1ccccc1)Oc1ccccc1)[C@H]1CC[C@@H]2O1", "14 µM"],
  ["CCOP(=O)(OCC)O[C@H]1CCCC[C@@H]1N1C(=O)[C@@H]2[C@H](C1=O)[C@H]1CC[C@@H]2O1", "60 µM"],
  ["CCOP(=O)(OCC)OCCCCCN1C(=O)[C@@H]2[C@H](C1=O)[C@H]1CC[C@@H]2O1", "> 100 µM"],
  ["O=C1c2ccccc2C(=O)N1CCCOP(=O)(Oc1ccccc1)Oc1ccccc1", "> 100 µM"],
  ["O=C1[C@@H]2[C@H](C(=O)N1CCCCCOP(=O)(OCC(Cl)(Cl)Cl)OCC(Cl)(Cl)Cl)[C@H]1CC[C@@H]2O1", "19 µM"],
  ["O=C1[C@@H]2[C@H](C(=O)N1[C@H]1CCCC[C@@H]1OP(=O)(Oc1ccccc1)Oc1ccccc1)[C@H]1CC[C@@H]2O1", "31 µM"],
  ["O=C1[C@@H]2[C@H](C(=O)N1CCCCCOP(=O)(Oc1ccccc1)Oc1ccccc1)[C@H]1CC[C@@H]2O1", "50 µM"],
  ["CCOP(=O)(OCC)OCCN1C(=O)[C@@H]2[C@H](C1=O)[C@H]1CC[C@@H]2O1", "43 µM"],
  ["O=C1OC(=O)C2C3CCC(O3)C12 (stereo not drawn)", "23 µM"],
  ["O=C1[C@@H]2[C@H](C(=O)N1CCCOP(=O)(OCC(Cl)(Cl)Cl)OCC(Cl)(Cl)Cl)[C@H]1CC[C@@H]2O1", "58 µM"]
]}
